measured_target: human recombinant HDAC6 (Homo sapiens, UniProt Q9UBN7)
Construct: purchased Calbiochem 382180
Sequence (Q9UBN7 1-1215): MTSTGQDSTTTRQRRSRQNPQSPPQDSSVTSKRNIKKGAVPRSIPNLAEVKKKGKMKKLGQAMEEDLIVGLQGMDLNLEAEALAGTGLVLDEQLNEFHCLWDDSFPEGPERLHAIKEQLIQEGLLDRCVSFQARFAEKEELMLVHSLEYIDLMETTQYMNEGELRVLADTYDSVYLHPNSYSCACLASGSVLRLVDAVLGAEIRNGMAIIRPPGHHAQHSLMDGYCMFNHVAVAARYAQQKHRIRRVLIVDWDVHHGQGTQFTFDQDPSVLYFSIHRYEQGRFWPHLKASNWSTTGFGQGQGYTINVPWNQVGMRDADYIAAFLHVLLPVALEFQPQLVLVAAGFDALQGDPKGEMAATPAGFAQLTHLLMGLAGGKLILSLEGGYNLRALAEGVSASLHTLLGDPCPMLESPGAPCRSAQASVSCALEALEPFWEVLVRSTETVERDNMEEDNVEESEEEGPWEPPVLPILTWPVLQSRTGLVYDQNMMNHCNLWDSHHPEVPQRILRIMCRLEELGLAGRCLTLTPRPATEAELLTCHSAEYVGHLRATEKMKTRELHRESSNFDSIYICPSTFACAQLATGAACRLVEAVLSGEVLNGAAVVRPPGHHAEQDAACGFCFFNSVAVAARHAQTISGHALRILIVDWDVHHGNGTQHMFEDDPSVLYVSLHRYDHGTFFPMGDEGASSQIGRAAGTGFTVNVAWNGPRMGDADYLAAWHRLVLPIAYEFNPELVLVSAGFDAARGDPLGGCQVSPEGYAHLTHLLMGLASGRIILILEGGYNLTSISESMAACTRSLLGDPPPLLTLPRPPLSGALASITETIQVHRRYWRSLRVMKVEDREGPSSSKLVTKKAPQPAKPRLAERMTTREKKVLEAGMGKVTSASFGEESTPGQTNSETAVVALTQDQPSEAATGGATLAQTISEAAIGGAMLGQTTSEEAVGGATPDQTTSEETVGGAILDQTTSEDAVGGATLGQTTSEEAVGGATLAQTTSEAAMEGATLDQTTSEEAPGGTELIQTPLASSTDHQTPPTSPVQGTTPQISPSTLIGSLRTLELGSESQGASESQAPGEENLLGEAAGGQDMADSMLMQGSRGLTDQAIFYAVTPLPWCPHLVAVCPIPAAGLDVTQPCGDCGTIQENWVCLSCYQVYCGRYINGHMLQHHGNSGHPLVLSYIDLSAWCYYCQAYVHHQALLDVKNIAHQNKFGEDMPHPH
assay_remarks: HDAC6 enzyme activity inhibition assay (in vitro, fluorimetric)
Assay type: biochemical
measurement_parameters: HDAC6 selectivity over HDAC1
Description: In order to examine the HDAC6 selectivity of the compounds of formula 1 of the present invention by HDAC1 and HDAC6 enzymatic activity inhibition assays, an experiment was performed using a conventional substance as a control. HDAC enzyme activity was measured using a HDAC Fluorimetric Drug Discovery Kit (BML-AK511, 516, Enzo Life Science). […] Based on the resulting values, each IC50 value was calculated using GraphPad Prism4.0 program.
experimental_endpoint: HDAC6 selectivity (fold)

// solved cases for HDAC6 selectivity (fold) follow
                                   molecule     experimental_endpoint  recorded_result
0  C[C@@H]1CN(Cc2ccc(C(=O)NO)cc2)C[C@H](C)N1Cc1cccc(Cl)c1C(F)(F)F [Compound 267]  HDAC6 selectivity (fold)               75
1  C[C@@H]1CN(C(=O)NCc2ccccc2)C[C@H](C)N1Cc1ccc(C(=O)NO)cc1 [Compound 168]  HDAC6 selectivity (fold)                7
2  C[C@@H]1CN(Cc2ccc(C(=O)NO)cc2)C[C@H](C)N1Cc1ccc(OCC2CCN(CC(C)(C)F)CC2)cc1 [Compound 388]  HDAC6 selectivity (fold)              109
3  C[C@@H]1CN(Cc2ccc(C(=O)NO)cc2)C[C@H](C)N1C(=O)C1CCCO1 (stereo partly shown) [Compound 402]  HDAC6 selectivity (fold)               32

P. C[C@@H]1CN(Cc2ccc(C(=O)NO)cc2)C[C@H](C)N1Cc1ccc2ccccc2c1 [Compound 265]
Q. C[C@@H]1CN(C(=O)c2cccc(-c3ccncc3)c2)C[C@H](C)N1Cc1ccc(C(=O)NO)cc1 [Compound 260]
Which gives the smaller HDAC6 selectivity (fold) number: P or Q ? The response must carry the label of the picked entry.
Q
(Q: 3 fold, P: 84 fold)
